molecular target: Gal(a1-3)Gal(b1-4)[Fuc(a1-3)]GlcNAc; assay: glycan array binding signal (z-score within array); higher = stronger binding; settings: glycan notation: IUPAC condensed, linker removed
Shown is part of a subset that was picked to be rich in the strongest signals.
quantity-name: glycan array binding signal (z-score)
Give bare numbers.

Below: 5 binders and their reported glycan array binding signal (z-score).
binder	glycan array binding signal (z-score)
UDA (Urtica dioica), P11218 (protein) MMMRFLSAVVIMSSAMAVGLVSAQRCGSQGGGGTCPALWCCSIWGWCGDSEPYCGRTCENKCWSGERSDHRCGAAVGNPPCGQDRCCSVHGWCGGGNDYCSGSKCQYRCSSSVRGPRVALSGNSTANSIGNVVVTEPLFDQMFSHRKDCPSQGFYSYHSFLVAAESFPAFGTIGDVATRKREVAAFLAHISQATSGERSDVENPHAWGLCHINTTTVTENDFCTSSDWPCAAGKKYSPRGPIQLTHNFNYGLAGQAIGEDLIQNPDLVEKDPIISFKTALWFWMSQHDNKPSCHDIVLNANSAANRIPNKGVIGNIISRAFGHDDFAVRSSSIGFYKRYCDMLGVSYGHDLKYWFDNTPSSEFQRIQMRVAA	-0.183
CD72 ectodomain (Homo sapiens), P21854 (protein) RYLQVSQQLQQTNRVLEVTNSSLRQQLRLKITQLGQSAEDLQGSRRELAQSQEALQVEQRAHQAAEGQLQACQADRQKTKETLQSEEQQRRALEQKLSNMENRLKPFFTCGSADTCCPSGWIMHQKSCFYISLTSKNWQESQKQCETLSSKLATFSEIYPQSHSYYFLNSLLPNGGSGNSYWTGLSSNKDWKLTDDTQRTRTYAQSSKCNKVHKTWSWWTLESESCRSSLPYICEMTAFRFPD	1.45
EUL D1A first (Oryza sativa) (protein) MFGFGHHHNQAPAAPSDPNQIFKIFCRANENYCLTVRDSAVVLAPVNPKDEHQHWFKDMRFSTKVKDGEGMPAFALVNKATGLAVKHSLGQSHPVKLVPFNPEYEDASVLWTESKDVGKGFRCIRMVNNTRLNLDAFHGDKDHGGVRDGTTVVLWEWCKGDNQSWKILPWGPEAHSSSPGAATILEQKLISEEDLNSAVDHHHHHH	-0.411
Lb MiSSP8 (Laccaria bicolor) (protein) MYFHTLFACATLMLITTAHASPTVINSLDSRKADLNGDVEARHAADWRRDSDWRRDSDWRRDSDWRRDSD	-0.488
CFEM-PPm (Pichia pastoris), F2QPV1 (protein) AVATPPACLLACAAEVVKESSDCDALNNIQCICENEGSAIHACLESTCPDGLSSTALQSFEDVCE	-0.203

From here, focus on the item given below.
**Q:** // query glycan array binding signal (z-score) value for entry Agalectin (Anopheles gambiae) (protein) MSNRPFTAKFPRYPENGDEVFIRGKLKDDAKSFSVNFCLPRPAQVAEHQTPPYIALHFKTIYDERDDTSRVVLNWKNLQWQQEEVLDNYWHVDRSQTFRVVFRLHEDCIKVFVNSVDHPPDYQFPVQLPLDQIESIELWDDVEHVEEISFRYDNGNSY
**A:** -0.066
